Data provenance: a melting point compilation (Tetko et al.; mined from patent text by program, amines drawn as free bases though some values may be those of a salt)

List of melting point values.

Compound | melting point
Cc1[nH]c(=O)[nH]c1C(=O)Cc1ccccc1 | 239 to 240 °C
O=C(O)CC1(CS)CC1 | 42 to 45 °C
O=C(O)CC1(c2ccc(Cl)c(Cl)c2)CCC(=O)NC1=O (stereo unspecified) | 203 °C
CCOc1ccc(C2=CC(C)(C)Oc3c(OCC)cc(Cc4cnc(N)nc4N)cc32)cc1 | 186 to 188 °C
N#CC(c1ccc(F)cc1)c1ccc(F)cc1 | 62 to 63.5 °C
Cc1cc(C(=O)N(O)C2CCCCC2)c(C)o1 | 135 to 137 °C
Cc1ccc(-n2cc(C)cc2-c2ccc(S(N)(=O)=O)cc2)cc1 | 144 to 147 °C
CCOC(=O)c1ncn2c1CN=C(c1ccccn1)c1cc(C#C[Si](C)(C)C)ccc1-2 | 205 to 206 °C
CCCCCCN1CCN(Cc2ccc([N+](=O)[O-])cc2)C(=O)C1=O | 115 to 117 °C
Nc1c(Cl)cc(C(O)CNCCCCCCOCCCc2ccc(Br)cn2)cc1Cl (stereo unspecified) | 52 to 55 °C
Cc1cccc(N2C(=S)SCC2(O)CC(C)C)n1 (stereo unspecified) | 95 °C

###

Parameter: melting point

Compound | Parameter | Observed Measurement
CCC1CCC(Oc2cc(F)cc(C(=O)Nc3ccc(OCCN4CCOCC4)c4ccccc34)c2)CC1 (stereo not drawn) | melting point | 102 to 105 °C
CC(C(=O)C(O)C1OC(n2cc(F)c(=O)[nH]c2=O)C(O)C1O)c1ccccc1 (mixture of isomers) | melting point | 133 to 134 °C
CN(C)NC(=NS(=O)(=O)c1ccc(Cl)cc1)N1CC(c2ccccc2)C(c2ccc(Cl)cc2)=N1 (single isomer, unassigned; (-)) | melting point | 218 to 224 °C
OCc1ccc(OCc2ccccc2)cc1OCc1ccccc1 | melting point | 84 to 85 °C
COC(=O)CC1Sc2ccc([N+](=O)[O-])cc2CN(CCc2ccccc2)C1=O (stereo not drawn) | melting point | 205 to 208 °C
CC(=O)Nc1cc2c(c3c1OC(C)(C)C3)C(c1ccccc1)=NC(C)(C)C2 | melting point | 175 to 180 °C
CC(C)c1cc(C(C)C)c(CC(=O)NS(=O)(=O)Oc2c(C(C)C)cc(N)cc2C(C)C)c(C(C)C)c1 | melting point | 153 to 155 °C
CCOC(=O)c1c(C)nn(-c2ccc(F)cc2)c1N | melting point | 129 to 131 °C

###

Parameter: melting point

Molecule | Parameter | Observed Measurement
Cc1ccccc1C=C(C(=O)O)C(=O)O | melting point | 197 to 200 °C
Cc1nc2c(C#N)cnn2c2c1CCN2C(C)(C)C | melting point | 220 to 224 °C
CCS(=O)c1nc(-c2ccc(OC)cc2)c(-c2ccc(OC)cc2)[nH]1 (stereo unspecified) | melting point | 161 to 162 °C
Cc1cc(Nc2ccnc(Cl)n2)ccc1F | melting point | 130 to 131 °C
CCOCCOc1ccc(C(C)C)c(NC(=O)CN2CCN(CCSc3nc4ccccc4o3)CC2)c1C(C)C | melting point | 100 to 103 °C
CC(=O)n1cc(O)c2cc(Br)ccc21 | melting point | 180 to 182 °C
CN(C)C(=O)N1CCC(Oc2ccc(C(F)(F)F)cc2)(c2ccccc2)CC1 | melting point | 158 to 160 °C
Cc1cc2cc(CN3CCCCCC3)cnc2cc1NC(=O)c1ccc(-c2ccc(Cl)s2)cc1 | melting point | 180 °C
CC(=O)Oc1c(C)nc(N)nc1C(C)C | melting point | 141 to 142 °C
COc1ccc2c3c1CCCC3C(CN1CCN(C)CC1)CC2 (stereo unspecified) | melting point | 115 to 116 °C
Cc1cc(=O)[nH]c2c(C)cc(Br)cc12 | melting point | > 300 °C

###

Compound | melting point
CCCC(OC)c1ccc(Cl)c2nc3n(c12)CCCN3c1c(C)cc(Cl)cc1Cl (centres undefined) | 151 to 152 °C
CCC1(O)CC(=O)OCc2c1cc1n(c2=O)Cc2c-1nc1ccccc1c2CCC(C)C (centres undefined) | 263 °C
CC(=O)c1cccc2ccc(CC(=O)O)cc12 | 131 to 132 °C
Oc1cc(-c2ccccc2)ncn1 | 266 to 267 °C
COc1cc2c(cc1OC)C(Cc1cc(I)c(NC(C)=O)c(I)c1)N(C(=O)C(F)(F)F)CC2 (centres undefined) | 218 to 219 °C
CCc1nc(C)c2nnc3ccc(F)cc3n12 | 187 to 190 °C
COC(=O)C1(N)CCN(c2ncc3ncnc(Nc4ccc(F)c(Cl)c4)c3n2)CC1 | 182 to 184 °C
N#Cc1c(OCCOc2ccccc2)cccc1[N+](=O)[O-] | 129 to 138 °C
NCC1(Cc2ccc(CC(=O)O)cc2)CCC1 | > 255 °C

###

Here the recorded melting point is given for each entry.
Parameter: melting point

Compound | Parameter | Observed Measurement
CN1CNC(=S)N(c2ccc(F)cc2)C1 | melting point | 173 to 175 °C
CN(C)CC1CNc2ccccc2C1 (stereo unspecified) | melting point | 85 to 89 °C
COC(=O)C1CC2C3CCc4cc(O)ccc4C3CCC2(C)C1=O (stereo unspecified) | melting point | 215 to 217 °C
CC#CCOc1ccc(S(=O)(=O)N(C)C(C(=O)NO)c2ccc(OCCCNS(C)(=O)=O)cc2)cc1 (stereo unspecified) | melting point | 65 to 70 °C
Cc1ccc(-c2cc(NCCNc3cc(-c4ccc(C)cc4)[nH]n3)n[nH]2)cc1 | melting point | 179 °C
Cc1c(C)c([N+](=O)[O-])c(C)c2c1OC(C)(C)C2c1ccc(F)cc1 (stereo unspecified) | melting point | 94 to 95 °C

###

Collected melting point values appear next to each entry.
Parameter: melting point

Compound | Parameter | Observed Measurement
Cc1oc(-c2ccccc2)nc1COc1ccc(N)cn1 | melting point | 106 to 107 °C
CCCCCCCCCCCCCCCCCCOC(=O)C(N)Cc1ccc(N)cc1 (stereo unspecified) | melting point | 54 to 56 °C
Cc1cc2c(cc1C)C(N)CC(C)(C)O2 (stereo unspecified) | melting point | > 270 °C
NCC(=O)NCc1cccnc1 | melting point | 87 to 88 °C
Cn1c(=O)n(Cc2ccccc2)c2cc(Cn3ccnc3)ccc21 | melting point | 129 °C
Brc1ccc2[nH]cc(Cc3cccnc3)c2c1 | melting point | 122 °C
O=c1[nH]c(CCCl)c(Cl)c(=O)[nH]1 | melting point | 225 °C
Cc1cc(Cl)nc(C=Cc2ccccc2)n1 | melting point | 71 to 73 °C
COc1ccc(-c2cc3ncc(C#N)c(Nc4ccc(Sc5nccn5C)c(Cl)c4)c3cc2OC)cc1 | melting point | 227 to 229 °C
Cc1oc(-c2ccc(C(F)(F)F)cc2)nc1COc1ccc(S(=O)(=O)Cl)cc1 | melting point | 90 to 93 °C
C=CCC(=O)Nc1n[nH]c2cc(Cl)ccc12 | melting point | 150 °C

###

A collection of compounds and their measured melting point

Compound | melting point
COc1cc(OCc2ccccn2)ccc1/C=C/C(=O)CC(=O)/C=C/c1cc2ccccc2s1 | 188 °C
Cc1ccc2nc3[nH]c(=O)[nH]c3cc2c1Cl | > 360 °C
Cc1nc(C)c(C(=O)OCC2CCCO2)c(-c2cccc([N+](=O)[O-])c2)c1C(=O)OCC1CCCO1 (configuration not stated) | 75 to 77 °C
N=C(NO)c1ccc(-c2ccc(-c3ccc(C(=N)NO)o3)cc2)cc1 | 229 to 230 °C
Cc1nc2cc(NC(=O)NC34CC5CC(CC(C5)C3)C4)ccc2s1 | 209 to 214 °C
COc1ccc(-c2snnc2SC)cc1 | 60.5 to 61 °C
COc1cccc(OC)c1C(=O)Oc1cc([N+](=O)[O-])cc([N+](=O)[O-])c1O | 217 to 218 °C
Cc1nc(C(=O)NCCO[N+](=O)[O-])co1 | 106 to 108 °C
Nc1c(SC(F)(F)F)c(C(=O)NC2CC2)nn1-c1c(Cl)cc(C(F)(F)F)cc1Cl | 193 °C
Brc1ccc(OCc2ccc3ccccc3c2)cc1 | 104 to 106 °C
CSc1cccc(-n2cnc(-c3ccc(F)cc3)c2-c2ccncc2)c1 | 155 to 156 °C
O=C1c2ccccc2C(=O)N1CCCc1cccnc1 | 88 to 89 °C
[N-]=[N+]=C(S(=O)(=O)C1CCCCC1)S(=O)(=O)C1CCCCC1 | 130 to 131 °C
CCCCCCCCCCCCCCCCCC(=O)OC1CC(C)(C)N(OC(=O)CCCCCCCCCCCCCCCCC)C(C)(C)C1 | 62 to 65 °C
O=C1CCC(c2ccc3nc(-c4ccncc4)[nH]c3c2)=NN1 | > 320 °C
C=CCOC(=O)c1[nH]c2cc(Cl)cc(Cl)c2c1C=C1NC(=O)N(c2ccccc2)C1=O | > 250 °C
O=C(N[C@H](Cc1ccc(C(F)(F)F)cc1)[C@@H](O)c1ccc(F)cc1)c1cccc(Oc2ccccc2)c1 (racemic) | 144 to 145 °C
Cc1c(F)cccc1NC(=O)CN1CC2CCC(C1)N2S(=O)(=O)c1ccccc1 | 168 to 169 °C
CCc1c(Sc2cc(C)cc(C)c2)n(CC2CC=CC2)c(=O)[nH]c1=O | 128 to 130 °C
Cn1nnnc1C=C(c1ccc(F)cc1)c1ccc(F)cc1 | 169 to 171 °C
COc1cc(C(C)=O)cc(N)c1OC | 63 to 65 °C
CCc1cn(C2CC(O)C(CN=[N+]=[N-])O2)c(=O)nc1NC(=O)c1ccccc1 (configuration not stated) | 125 to 126 °C
Cc1cc(C(O)=S)cc(N)c1C(=O)c1ccccc1 | 158 to 159 °C
CCOC(=O)C(Cc1ccc(OC)cc1)(C(=O)OCC)c1cc2cc(Br)ccc2s1 | 58 to 60 °C
COc1ccc(C(C)C)cc1-c1cc(-c2nnnn2C2CCN(C(=O)CC(C)C)CC2)c(O)cc1O | 220 to 224 °C
N#Cc1ccc(Cn2c(N3CCC(CNc4nccc(O)n4)CC3)nc3ccccc32)cc1 | 198 °C
CN(Cc1ccc([N+](=O)[O-])cc1)Cc1nc(-c2cc(C(C)(C)C)c(O)c(C(C)(C)C)c2)cs1 | 111 to 112 °C
O=[N+]([O-])c1cccc(CNc2nnn[nH]2)c1 | 208 to 210 °C
FC(F)(F)c1ccc(/C=C/c2nc(COc3cccc(CCCn4ccnn4)c3)co2)cc1 | 115 to 116 °C
NS(=O)(=O)Nc1cccc(-c2cccc(-c3nc(-c4ccc(C(F)(F)F)cc4)cc(C(F)(F)F)n3)c2)c1 | 174 °C
COc1ccc(C(C)(C)C)cc1NC(=O)Nc1ccc(-c2cnc3c(c2)NC(=O)CO3)c2ccccc12 | > 200 °C
COCCOc1ccc(CCC(=O)N(CCOC)S(N)(=O)=O)c(Oc2ncc(C(F)(F)F)cc2Cl)c1 | 101 °C
CCN(CC)CCOC(=O)C1=C(C)Nc2ccnc(OC(C)C)c2C1c1ccccc1C(F)(F)F (configuration not stated) | 198 to 200 °C
CCc1c(-c2ccccc2)c2c(COCCCN3CCCCC3)cc3c(O)ccc1n32 | 93 to 99 °C
CCc1[nH]n(C2CCCC2)c2nc(Cc3ccc(OC(=O)c4ccc(CN(CC)CC)cc4)cc3)nc(=O)c1-2 | 143 to 145 °C
COc1cc2c(cc1Nc1ncc(Cl)c(Nc3ccccc3S(=O)(=O)N(C)C)n1)CCN(CCO)CC2 | 150 to 152 °C
COC(=O)c1[nH]c(-c2ccccc2)c(NC(N)=O)c1C(=O)OC | 246 to 248 °C
